system: human lung cancer strain NCI-H441; assay: NCI-H441 cell proliferation inhibitory activity (CellTiter-Glo, 4 days); format: cell-based; conditions: 50% proliferation inhibitory concentration, four days, read-out: NCl-H441 IC50
In this section we review reported pIC50 values for a set of compounds.
pIC50 is a log-scale quantity: -log10 of the concentration expressed in molar.

1. CCO[C@@H]1C[C@H]2C(=O)NC3(CCC3)C(=O)N(C)[C@@H](C3CCCC3)C(=O)N(C)[C@H](C(=O)N3CCOCC3)CC(=O)N(C)[C@@H](CC(C)C)C(=O)N[C@@H]([C@@H](C)CC)C(=O)N3CC[C@H]3C(=O)N(C)[C@H]3C[C@@H](C)[C@@H](C)CN(C3=O)[C@@H](Cc3ccc(C(F)(F)F)cc3)C(=O)N(C)CC(=O)N[C@@H](CCc3ccc(C(F)(F)F)c(Cl)c3)C(=O)N2C1 ... 8.21

Turning to the following compound.
(Q) Item `CCCCCC[C@H]1C(=O)N[C@@H]([C@@H](C)CC)C(=O)N(C)CC(=O)N(C)[C@H]2C/C=C\CCN(C2=O)[C@@H](Cc2ccc(C(F)(F)F)cc2)C(=O)N(C)CC(=O)N[C@@H](CCc2ccc(Cl)c(Cl)c2)C(=O)N2C[C@H](OCC)C[C@H]2C(=O)NC2(CCC2)C(=O)N(C)[C@@H](C(CC)CC)C(=O)N(C)[C@H](C(=O)N(C)C)CC(=O)N1C` has what recorded pIC50?
(A) 7.17
